target: T1, E. coli 70S ribosome particle (E. coli); assay: ITC, E. coli ribosome (70S)
T1 construct: also called ^Ec70S
Square brackets hold non-standard residues; d marks the D form. Ends that are not written are not given here.
quantity.kind: Kd
Param answer (str): number followed by unit.

Lab book: Kd of VDKPPYLPRPRPPR[dR]IYN[dR]-NH2 (also called CA3 28; CA3-28) [P28 (Onc112), VDKPPYLPRPRPPRrIYNr-NH2] noted as 241 nM
